assay_name: in vivo
recorded_conditions: mouse, in vivo, ip
Description: The acute toxicity was determined on groups of 10 or 20 female Swiss mice weighing 20-26 g, using intraperitoneal administration. The LD 50 was calculated (Probit analysis) as the dose following which 50% of the animals died within 7 days.
Counter-ions that a name gives are not always drawn.
What LD50 at 168 h was measured for each of the following?
Give just the number in mg/kg; leave the unit off.

Enquiry: Which LD50 at 168 h value is on record for c1ccc2c(-c3ccc(C4=NCCCN4)cc3)nsc2c1 [Example 2, hydrochloride] ?
Return: 126

Enquiry: Entry to check: CC1CN=C(c2ccc(-c3nsc4ccccc34)cc2)N1 (stereo not drawn) [Example 3, hydrochloride]
Return: 90.5

Enquiry: Entry to check: CCN(CC)CCNC(=O)c1ccc(N)cc1 [Procainamide, procainamide, reference compound]
Return: 227

Cited source for all entries: patent US4206217A
